// phosphorylation enrichment lookup, one value per entry
# TARGET: Fes (UniProt P07332)
# Sequence (P07332 whole entry, looked up): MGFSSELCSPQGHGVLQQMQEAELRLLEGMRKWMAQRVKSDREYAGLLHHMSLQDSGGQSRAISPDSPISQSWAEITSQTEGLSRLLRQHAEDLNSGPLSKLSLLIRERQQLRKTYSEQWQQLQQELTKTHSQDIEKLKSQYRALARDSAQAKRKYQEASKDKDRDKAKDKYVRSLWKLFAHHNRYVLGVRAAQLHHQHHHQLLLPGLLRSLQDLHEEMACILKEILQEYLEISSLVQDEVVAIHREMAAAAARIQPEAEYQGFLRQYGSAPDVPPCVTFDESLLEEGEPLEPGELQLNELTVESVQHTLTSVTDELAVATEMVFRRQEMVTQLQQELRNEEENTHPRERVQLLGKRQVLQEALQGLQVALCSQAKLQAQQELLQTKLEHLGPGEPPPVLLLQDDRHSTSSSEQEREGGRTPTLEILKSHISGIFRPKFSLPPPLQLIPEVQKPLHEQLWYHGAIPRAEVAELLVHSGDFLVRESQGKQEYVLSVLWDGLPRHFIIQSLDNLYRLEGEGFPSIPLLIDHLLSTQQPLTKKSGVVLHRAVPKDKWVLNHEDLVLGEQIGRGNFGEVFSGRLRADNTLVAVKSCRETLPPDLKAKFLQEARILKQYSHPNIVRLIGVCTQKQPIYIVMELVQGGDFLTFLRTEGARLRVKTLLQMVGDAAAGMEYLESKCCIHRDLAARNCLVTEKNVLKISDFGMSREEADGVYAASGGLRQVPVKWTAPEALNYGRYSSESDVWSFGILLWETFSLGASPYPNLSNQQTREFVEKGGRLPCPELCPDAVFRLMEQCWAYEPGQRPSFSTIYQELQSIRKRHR
# PROTOCOL NOTES: phosphorylation enrichment, bacterial display (enrichment ratio); higher = better substrate or ligand; peptides without Tyr show the background

# SEQUENCE INPUT, phosphorylation enrichment
rows = [
    ("SFKNKYGMVAQ [APOB_Y276_YF]", 0.574),
    ("LIDSSYLTRTA [GREB1L_Y1063]", 0.668),
    ("EQFELYCEMGS [CBL_Y371_YF]", 1.68),
    ("PDNEPYIFKVF [PIK3AP1_Y553]", 2.25),
    ("RASDFYSQQMA [GBP6_Y334_A331S_YF]", 0.682),
    ("TIMTNYNPNYC [ALK_Y1092_D1091N]", 0.901),
    ("SHSMRYFDTSV [HLA-C_Y31_A35S]", 0.576),
    ("LRNRVYEVPVE [SLC26A3_Y756]", 1.25),
    ("NNPAFYVLEGV [INPPL1_Y987_YF]", 1),
    ("SSPVLYLSPET [TJP1_Y931_P930L]", 0.833),
    ("ILTLKYPIKHG [ACTA1_Y71_E74K]", 0.588),
    ("ENPAKYDDIKK [GAPDH_Y255_K251N]", 1.04),
    ("GHMFAYDWISI [BEST1_Y227_L224M_YF]", 2.68),
]

###

# TARGET: MERTK (UniProt Q12866)
# Sequence (Q12866 whole entry, looked up): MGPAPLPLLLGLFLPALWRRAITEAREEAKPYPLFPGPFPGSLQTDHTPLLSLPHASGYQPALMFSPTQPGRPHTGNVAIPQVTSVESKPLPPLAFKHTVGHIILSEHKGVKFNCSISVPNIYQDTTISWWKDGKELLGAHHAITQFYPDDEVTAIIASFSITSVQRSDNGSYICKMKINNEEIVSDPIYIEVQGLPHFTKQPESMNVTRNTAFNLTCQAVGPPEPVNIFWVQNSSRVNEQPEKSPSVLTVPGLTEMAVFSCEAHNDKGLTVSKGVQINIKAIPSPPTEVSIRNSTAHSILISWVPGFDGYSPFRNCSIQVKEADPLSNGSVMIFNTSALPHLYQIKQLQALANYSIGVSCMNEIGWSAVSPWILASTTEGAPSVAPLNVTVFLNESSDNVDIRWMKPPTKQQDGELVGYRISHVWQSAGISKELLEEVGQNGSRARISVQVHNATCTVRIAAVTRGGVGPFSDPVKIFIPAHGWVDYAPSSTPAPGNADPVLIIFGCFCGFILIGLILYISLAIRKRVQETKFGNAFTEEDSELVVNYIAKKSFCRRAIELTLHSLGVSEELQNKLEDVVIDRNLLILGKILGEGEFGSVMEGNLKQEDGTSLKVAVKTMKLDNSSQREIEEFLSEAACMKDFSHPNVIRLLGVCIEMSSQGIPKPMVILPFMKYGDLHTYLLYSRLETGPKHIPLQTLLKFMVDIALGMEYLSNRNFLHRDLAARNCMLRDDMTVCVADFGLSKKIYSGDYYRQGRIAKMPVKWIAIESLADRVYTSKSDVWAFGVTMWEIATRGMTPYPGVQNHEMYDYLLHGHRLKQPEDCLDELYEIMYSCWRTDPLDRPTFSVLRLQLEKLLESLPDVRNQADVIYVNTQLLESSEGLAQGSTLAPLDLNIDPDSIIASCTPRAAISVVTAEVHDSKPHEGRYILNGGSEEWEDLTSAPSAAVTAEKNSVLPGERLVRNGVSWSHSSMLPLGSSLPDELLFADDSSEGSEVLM
# PROTOCOL NOTES: phosphorylation enrichment, bacterial display (enrichment ratio); higher = better substrate or ligand; peptides without Tyr show the background
ENDPOINT NAME: phosphorylation enrichment

# SEQUENCE INPUT, ENDPOINT NAME, VALUE
measured = [
    ("GYEEAYSVFKK [PAFAH1B1_Y28]", "phosphorylation enrichment", 0.654),
    ("TGNPAYRSFSN [IL4R_Y497_A492T]", "phosphorylation enrichment", 0.326),
    ("VNTTLYEKFTY [TEK_Y1108]", "phosphorylation enrichment", 4.25),
    ("AKIDGYITSYR", "phosphorylation enrichment", 0.415),
    ("RIPFRYPKEFQ [IDS_Y234_H229R]", "phosphorylation enrichment", 0.637),
    ("SFKNKYGMVAQ [APOB_Y276_YF]", "phosphorylation enrichment", 0.341),
    ("NYYDTCIKTCL [IQGAP2_Y1445_Y1445C]", "phosphorylation enrichment", 5.87),
    ("TDLAFYLVCKG [ASL_Y376_R379C_YF]", "phosphorylation enrichment", 0.446),
    ("QGLRLYRTHLA [BTK_Y617_P619T]", "phosphorylation enrichment", 0.333),
    ("ESMNIYLQTSP [NAT1_Y208_T207I]", "phosphorylation enrichment", 0.618),
    ("LLRLAYLADIF [ZBED5_Y476]", "phosphorylation enrichment", 0.432),
    ("LKFAIYFEVRE [LAMA2_Y1258_A1261V_YF]", "phosphorylation enrichment", 0.808),
    ("TEAEPYFCSLR [NPHS1_Y1138_R1140C_YF]", "phosphorylation enrichment", 0.48),
]

###

# TARGET: Grb2 SH2 (UniProt P62993)
# Sequence (P62993 whole entry, looked up): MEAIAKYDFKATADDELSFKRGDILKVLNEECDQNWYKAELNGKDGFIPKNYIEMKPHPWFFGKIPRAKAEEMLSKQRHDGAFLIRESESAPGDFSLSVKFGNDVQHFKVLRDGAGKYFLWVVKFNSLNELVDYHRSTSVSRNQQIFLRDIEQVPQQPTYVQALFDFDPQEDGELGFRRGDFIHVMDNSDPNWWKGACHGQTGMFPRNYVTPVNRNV
# PROTOCOL NOTES: SH2 binding enrichment of the phosphorylated peptide, bacterial display (enrichment ratio); higher = better substrate or ligand; peptides without Tyr show the background
ENDPOINT NAME: SH2 binding enrichment

# SEQUENCE INPUT, ENDPOINT NAME, VALUE
records = [
    ("FESPRYLQVHI [FANCA_Y488]", "SH2 binding enrichment", 0.912),
    ("CSHMFYGKQCC [ADAMTS16_Y1211_K1209M]", "SH2 binding enrichment", 1.14),
    ("DVSVVCSEVKT [FCRL4_Y493_Y493C]", "SH2 binding enrichment", 1.1),
    ("RNVLVYDKLNV [ROR2_Y624]", "SH2 binding enrichment", 1.06),
    ("HPFNSYTFPRL [PAK5_Y316_S312P_YF]", "SH2 binding enrichment", 0.642),
    ("IRGNMYYENSY [EGFR_Y112]", "SH2 binding enrichment", 4.75),
    ("PPEFSYGLQTQ [SRA1_Y35_Q32E]", "SH2 binding enrichment", 1.06),
    ("IEDNKYTAREG [HCK_Y411_E410K]", "SH2 binding enrichment", 0.924),
]

###

# Tested on: Fer (mouse)
# PROTOCOL NOTES: phosphorylation enrichment, bacterial display (enrichment ratio); higher = better substrate or ligand; peptides without Tyr show the background
Would you mind labelling by phosphorylation enrichment? At or over 0.4 is 1, under is 0.

# SEQUENCE INPUT, LABEL VALUE
records = [
    ("HGDSAYHSQRH [ERBB3_Y1132_R1127H]", 0),
    ("SFHSSYSEIKD [DCLRE1C_Y322]", 1),
    ("LLARLYRGQAL [FGFR4_Y390_G388R]", 1),
    ("SFKNKYGMVAQ [APOB_Y276_YF]", 0),
    ("GEETDYTPVWC [UROD_Y30]", 1),
    ("RDSQLYAVDFE [MRPS34_Y34_YF]", 1),
    ("AQMAMYFWEMG [TRPM4_Y577]", 1),
    ("VLNKGYRMVVN [HINT1_Y94_G89V]", 0),
    ("QRNEEYCLLDS [ITK_Y198_R193Q]", 1),
    ("VKPENYWRLDI [VHL_Y175_R176W]", 1),
    ("RGFDTYFGYLL [ARSB_Y165]", 1),
    ("NVGGKYSYLKV [GRM3_Y478]", 1),
    ("ESMNIYLQTSP [NAT1_Y208_T207I]", 1),
    ("FDDIACIRKTL [PIK3CA_Y1021_Y1021C]", 1),
    ("ESDFPYSSSFE [SRPK2_Y427_T426P_YF]", 1),
    ("LNPDGYEKAYE [CPXM2_Y427]", 0),
    ("MSRDVYSTDCF [NTRK2_Y702_Y706C_YF]", 1),
    ("LWPIWYRCRRP [MRGPRX1_Y130_H133R]", 0),
    ("GGGGGYNRSSG [FUS_Y232]", 0),
    ("NHYKIYNLYAE [PTEN_Y68_C71Y]", 1),
    ("DSILVYQGKEQ [USH2A_Y1909]", 1),
    ("RIVEIYSRSLQ [GCH1_Y175_R178S]", 1),
    ("CYSSEYHYVGG [CTSC_Y345_Y340C]", 1),
    ("MWGSDYVQLSR [MAP3K4_Y582]", 0),
    ("RTESQYQENRG [LRCH3_Y354_R350T]", 1),
    ("GHMFAYDWISI [BEST1_Y227_L224M_YF]", 1),
    ("RLYARYFQGDL [PDK3_Y337]", 1),
    ("LHSDHYSPSGR [TMPRSS12_Y23_Y19H]", 1),
    ("HPFNSYTFPRL [PAK5_Y316_S312P_YF]", 1),
    ("VTSLKYSTPPY [BRIP1_Y916_S919P]", 0),
]

###

# TARGET: FGFR1 (UniProt P11362)
# Sequence (P11362 whole entry, looked up): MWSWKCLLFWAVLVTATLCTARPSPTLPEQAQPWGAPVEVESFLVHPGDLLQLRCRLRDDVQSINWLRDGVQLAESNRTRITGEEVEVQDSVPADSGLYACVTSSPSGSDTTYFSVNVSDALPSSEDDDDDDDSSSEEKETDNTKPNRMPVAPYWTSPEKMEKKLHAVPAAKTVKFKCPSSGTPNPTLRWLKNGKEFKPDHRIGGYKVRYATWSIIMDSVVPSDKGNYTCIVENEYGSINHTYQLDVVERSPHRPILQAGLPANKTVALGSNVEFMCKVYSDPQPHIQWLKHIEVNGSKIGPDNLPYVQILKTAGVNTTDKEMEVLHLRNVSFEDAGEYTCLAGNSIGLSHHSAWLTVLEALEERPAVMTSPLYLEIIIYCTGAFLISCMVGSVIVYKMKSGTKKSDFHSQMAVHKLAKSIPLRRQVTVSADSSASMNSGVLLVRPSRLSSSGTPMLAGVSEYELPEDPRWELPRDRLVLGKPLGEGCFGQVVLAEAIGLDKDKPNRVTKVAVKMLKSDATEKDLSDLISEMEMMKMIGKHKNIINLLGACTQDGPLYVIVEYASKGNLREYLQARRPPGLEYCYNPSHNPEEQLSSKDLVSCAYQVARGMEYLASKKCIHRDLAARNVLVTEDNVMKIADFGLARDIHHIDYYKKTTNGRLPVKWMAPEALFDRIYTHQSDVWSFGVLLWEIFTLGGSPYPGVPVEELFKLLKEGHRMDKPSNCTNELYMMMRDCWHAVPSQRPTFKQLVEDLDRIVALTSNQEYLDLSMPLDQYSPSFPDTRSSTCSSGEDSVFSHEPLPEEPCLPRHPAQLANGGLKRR
# PROTOCOL NOTES: phosphorylation enrichment, bacterial display (enrichment ratio); higher = better substrate or ligand; peptides without Tyr show the background
Would you mind labelling by phosphorylation enrichment? At or over 0.5 is Y, under is N.

# SEQUENCE INPUT, LABEL VALUE
rows = [
    ("SREALYNEMDP [CACNA1A_Y794]", "Y"),
    ("TRNVRYLTLDI [AKR1C2_Y305_N300T]", "N"),
    ("SSEFHYVGGFF [CTSC_Y347_YF]", "Y"),
    ("SVFNNYIQTLG [CTNND1_Y174_S171F]", "Y"),
    ("QRAADYYSQQM [GBP6_Y333]", "Y"),
    ("SPFMLYQFLKQ [RPAP3_Y567_D564Y_YF]", "Y"),
    ("YPLELYERVRI [PRKCG_Y312_M317I]", "N"),
    ("MGGSVYFSYPD [HIKESHI_Y55]", "Y"),
    ("NVVHEYSSELE [FGB_Y172_N170H]", "N"),
    ("DHCNQYEQQKM [CHD7_Y75_Y72C]", "N"),
    ("KGNMYYENSYA [EGFR_Y113_R108K]", "Y"),
    ("RMLRKYQELMS [KRT74_Y425_E424K]", "Y"),
    ("ENPAKYDDIKK [GAPDH_Y255_K251N]", "Y"),
    ("QEGPEYWDQNT [HLA-A_Y83_E87N]", "Y"),
    ("SFHSSYSEIKD [DCLRE1C_Y322]", "Y"),
    ("QNAGDYFDLFG [PTPN11_Y62_T59A_YF]", "Y"),
    ("GHMFAYDWISI [BEST1_Y227_L224M_YF]", "Y"),
    ("KLVQLYDVCTK [BTK_Y461_G462D]", "Y"),
    ("AVSHRYDLGGL [QPRT_Y162_A158V]", "N"),
    ("PMWHPYKVDVT [TP53TG5_Y255]", "Y"),
    ("MDDKEYFSVHN [MET_Y1234_Y1230D_YF]", "Y"),
    ("THQKSYQPGRK [CEFIP_Y210_N208K]", "N"),
    ("DVSVVCSEVKT [FCRL4_Y493_Y493C]", "Y"),
    ("YEDALYTVLHR [UNC13D_Y61]", "Y"),
    ("QRKPSYNQLPS [BRCA2_Y71_A75P]", "Y"),
    ("SGGCSYGSGGG [KRT1_Y539_G537C]", "N"),
    ("RIPFRYPKEFQ [IDS_Y234_H229R]", "Y"),
    ("CKLFQYFLDHL [ATRX_Y1849_YF]", "Y"),
    ("KFADVYVGICL [B3GALNT1_Y269_E266A]", "Y"),
    ("EVESPYEVHDF [GIGYF2_Y1168_YF]", "Y"),
    ("PPGRSYSPCDF [TNS1_Y793_Y796C_YF]", "Y"),
    ("MDQAEYQAKIQ [DHX58_Y518_R523Q]", "Y"),
    ("AKLDIYKRKVE [VWA3B_Y918_N916D]", "N"),
    ("RAIELYNDKEK [OTULIN_Y244]", "Y"),
    ("PEADKYRLTFA [FGG_Y300_YF]", "Y"),
    ("GPSTPYTKSKR [SMARCC2_Y324]", "N"),
    ("GMKIVYVFVKK [DNAI2_Y5_E2K_YF]", "N"),
    ("HLVSEYQQFQD [TUBB3_Y422_D417H_YF]", "Y"),
]

FYI, the data here is from the supplement of paper PMC10065799.
